Experiment: chemical genetic growth profiling, strain panel (AID 1159580);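 further: tested at 20 µM; growth read once vehicle control cultures reached saturation at 30 °C; lower values mean less growth of the strain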
Details: S. cerevisiae deletion strains, growth OD, locus YOR316C, strain cot1
The whole screen tested about 5,500 compounds, of which about 2,000 (36%) were called active. Inconclusive results (about 18%) are left out. No stated cut-off is given here; in the data, active means normalized growth mostly below about 0.91 (no sharp cut-off); inconclusive means no clear call, values can overlap the other calls; inactive means mostly above about 0.92. Some of the results follow.
Select the matching outcome among active, inactive

compound | class
C#CC1(O)CCC2C3CCC4=CC(=O)CCC4(C)C3CCC21C (centres undefined) | inactive
O=C(CCc1ccc(O)cc1)c1c(O)cc(O)cc1O[C@@H]1O[C@H](CO)[C@@H](O)[C@H](O)[C@H]1O | inactive
CC(=O)OCC(=O)[C@@]1(O)CCC2C3CCC4=CC(=O)CC[C@]4(C)C3[C@@H](O)C[C@@]21C (some centres undefined) | inactive

Any idea what this test logged for O=C(OC[C@H]1O[C@H](OC(=O)c2cc(O)c(O)c(OC(=O)c3cc(O)c(O)c(O)c3)c2)[C@H](OC(=O)c2cc(O)c(O)c(OC(=O)c3cc(O)c(O)c(O)c3)c2)[C@@H](OC(=O)c2cc(O)c(O)c(OC(=O)c3cc(O)c(O)c(O)c3)c2)[C@@H]1OC(=O)c1cc(O)c(O)c(OC(=O)c2cc(O)c(O)c(O)c2)c1)c1cc(O)c(O)c(OC(=O)c2cc(O)c(O)c(O)c2)c1 ?
active

Any idea what this test logged for O=C(O)c1cc(=O)c2c(Cl)cc(Cl)cc2[nH]1 ?
inactive

Any idea what this test logged for C[C@]12CCC(=O)C=C1CCC1C2[C@@H](O)C[C@@]2(C)C1CC[C@]2(O)C(=O)COC(=O)CCC(=O)O (some centres undefined) ?
inactive

Any idea what this test logged for COc1cc2cc3c4cc(OC)c(OC)cc4cc[n+]3c(C)c2cc1OC ?
inactive

Any idea what this test logged for C[C@]12CCC(=O)C=C1CCC1C2C(=O)C[C@@]2(C)C1CC[C@]2(O)C(=O)CO (some centres undefined) ?
inactive

Any idea what this test logged for O=C(O)c1cc(=O)c2cccc(O)c2[nH]1 ?
inactive

Provenance of the data: PubChem BioAssay AID1159580
